Data provenance is PubChem BioAssay AID1963451.

# Tested on: 521955-158-R6-J3-PDC complex spheroid growth, % test/control;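 note: spheroids exposed to compounds for 7 days; 100% = DMSO vehicle control wells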
# procedureDetails: Anticancer human tumor 521955-158-R6-J3-PDC patient-derived pancreatic carcinoma cell line growth inhibition [Asc]
# setupConditions: second compound 0.0316 µM; first compound 0.03 µM; active compounds read low
# Description: Multicellular complex tumor spheroid response to apoptosis pathway targeting inhibitors Alrizomadlin, Pelcitoclax, and Dasminapant in combination with a variety of drugs and investigational agents in selected tumor cell lines […] Compounds. […] If the clinical Cmax for an agent had not been determined, the highest concentration tested was 10 microM. […]
measuredParameter: viability, T/C (%)
Respond with the bare value in %.

// known answers, use as guide
[
  {
    "molecule": "CCN1C(C(=O)NC23CCC(C(=O)O)(CC2)CC3)C(c2cccc(Cl)c2F)C2(C(=O)Nc3cc(Cl)ccc32)C12CCCCC2 (stereo not drawn) + Cc1c(S(C)(=O)=O)c(-c2cc(F)cc(N3CCN(c4ccc(NS(=O)(=O)c5ccc(NC(CCN6CCC(C(=O)OCCCP(=O)(O)O)CC6)CSc6ccccc6)c(S(=O)(=O)C(F)(F)F)c5)cc4)CC3)c2)c(-c2ccc(Cl)cc2)n1C(C)C",
    "measuredParameter": "viability, T/C",
    "readingUnit": "%",
    "measuredResult": 78.8
  },
  {
    "molecule": "Cc1nc(N2CCC3(CC2)COC(C)C3N)c(CO)nc1Sc1ccnc(N)c1Cl (stereo not drawn) + CNC(C)C(=O)NC1CN(S(=O)(=O)c2cccc(S(=O)(=O)N3CCC4CCC(C(=O)NC(c5ccccc5)c5ccccc5)N4C(=O)C(NC(=O)C(C)NC)C3)c2)CCC2CCC(C(=O)NC(c3ccccc3)c3ccccc3)N2C1=O",
    "measuredParameter": "viability, T/C",
    "readingUnit": "%",
    "measuredResult": 83.1
  }
]

With those in mind, consider the next molecule.
# get_value(readout= viability, T/C, system= 521955-158-R6-J3-PDC complex spheroid growth, % test/control) for CCN1C(C(=O)NC23CCC(C(=O)O)(CC2)CC3)C(c2cccc(Cl)c2F)C2(C(=O)Nc3cc(Cl)ccc32)C12CCCCC2 (stereo not drawn) + CNC(C)C(=O)NC1CN(S(=O)(=O)c2cccc(S(=O)(=O)N3CCC4CCC(C(=O)NC(c5ccccc5)c5ccccc5)N4C(=O)C(NC(=O)C(C)NC)C3)c2)CCC2CCC(C(=O)NC(c3ccccc3)c3ccccc3)N2C1=O;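 note: spheroids exposed to compounds for 7 days; 100% = DMSO vehicle control wells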
78.3
